Assign IC50 to each entry below.
- measurement_target: human NaV1.5 (Homo sapiens (Human), UniProt Q14524)
- Sequence (Q14524 other isoform, or with tags, fused parts or gaps): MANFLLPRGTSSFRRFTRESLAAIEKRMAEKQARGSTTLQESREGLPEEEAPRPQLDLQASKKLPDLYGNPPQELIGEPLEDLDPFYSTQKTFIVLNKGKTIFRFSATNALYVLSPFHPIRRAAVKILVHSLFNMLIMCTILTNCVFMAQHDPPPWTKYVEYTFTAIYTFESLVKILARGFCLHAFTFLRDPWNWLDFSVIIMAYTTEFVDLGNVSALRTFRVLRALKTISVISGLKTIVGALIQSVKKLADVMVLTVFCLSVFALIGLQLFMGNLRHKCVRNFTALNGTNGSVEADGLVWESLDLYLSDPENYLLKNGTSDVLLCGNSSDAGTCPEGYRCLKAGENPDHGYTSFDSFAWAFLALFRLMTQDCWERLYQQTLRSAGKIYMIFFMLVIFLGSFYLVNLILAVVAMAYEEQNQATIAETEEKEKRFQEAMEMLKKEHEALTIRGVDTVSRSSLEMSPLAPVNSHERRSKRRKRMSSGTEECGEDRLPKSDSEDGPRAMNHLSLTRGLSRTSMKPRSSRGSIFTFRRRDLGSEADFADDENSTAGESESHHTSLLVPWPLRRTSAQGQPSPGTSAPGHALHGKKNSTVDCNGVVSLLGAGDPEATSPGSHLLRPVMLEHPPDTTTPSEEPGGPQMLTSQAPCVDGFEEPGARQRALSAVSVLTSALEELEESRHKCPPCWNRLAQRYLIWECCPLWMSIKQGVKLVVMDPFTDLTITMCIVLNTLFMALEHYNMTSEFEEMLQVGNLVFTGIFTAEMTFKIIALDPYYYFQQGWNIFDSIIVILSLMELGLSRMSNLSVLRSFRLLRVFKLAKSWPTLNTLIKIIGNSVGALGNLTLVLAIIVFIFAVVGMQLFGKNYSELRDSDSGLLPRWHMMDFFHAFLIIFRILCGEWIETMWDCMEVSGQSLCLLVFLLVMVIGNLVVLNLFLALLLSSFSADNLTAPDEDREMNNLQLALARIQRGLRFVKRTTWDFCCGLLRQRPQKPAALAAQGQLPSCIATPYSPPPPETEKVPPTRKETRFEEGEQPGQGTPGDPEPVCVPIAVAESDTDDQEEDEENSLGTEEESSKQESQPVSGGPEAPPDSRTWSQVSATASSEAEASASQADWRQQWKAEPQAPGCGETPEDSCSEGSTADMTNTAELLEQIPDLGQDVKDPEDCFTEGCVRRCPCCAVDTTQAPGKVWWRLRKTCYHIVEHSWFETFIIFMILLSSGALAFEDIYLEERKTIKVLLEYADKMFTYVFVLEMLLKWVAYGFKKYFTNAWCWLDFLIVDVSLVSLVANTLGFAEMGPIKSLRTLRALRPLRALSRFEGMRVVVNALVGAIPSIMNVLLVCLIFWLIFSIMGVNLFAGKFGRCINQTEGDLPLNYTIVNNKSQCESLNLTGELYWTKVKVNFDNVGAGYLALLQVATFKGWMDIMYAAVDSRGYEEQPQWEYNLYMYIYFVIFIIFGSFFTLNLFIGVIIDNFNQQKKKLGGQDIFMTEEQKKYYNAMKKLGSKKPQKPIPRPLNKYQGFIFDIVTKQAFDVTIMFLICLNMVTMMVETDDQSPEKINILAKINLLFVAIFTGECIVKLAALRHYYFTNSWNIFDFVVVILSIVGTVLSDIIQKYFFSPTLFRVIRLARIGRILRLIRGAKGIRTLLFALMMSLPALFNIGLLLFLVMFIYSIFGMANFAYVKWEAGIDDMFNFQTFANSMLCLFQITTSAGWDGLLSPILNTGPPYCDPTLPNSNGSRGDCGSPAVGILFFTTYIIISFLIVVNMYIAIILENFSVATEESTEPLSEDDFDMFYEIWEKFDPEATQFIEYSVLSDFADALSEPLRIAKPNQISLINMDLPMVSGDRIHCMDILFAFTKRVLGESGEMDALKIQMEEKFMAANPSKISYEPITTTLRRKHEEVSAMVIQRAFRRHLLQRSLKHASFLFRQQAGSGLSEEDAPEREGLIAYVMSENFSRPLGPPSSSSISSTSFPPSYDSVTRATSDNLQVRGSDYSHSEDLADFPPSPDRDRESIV
- method_notes: cell-based
Give bare numbers, in µM.

Look over these answered cases.
compound	IC50 (µM)
C[C@H]1CN(Cc2ccccc2)C[C@@H]1Nc1ccc(S(=O)(=O)Nc2nccs2)cc1Cl (relative stereo)	8.67
C[C@@H]1CN(Cc2ccccc2)C[C@@H]1Nc1ccc(S(=O)(=O)Nc2nccs2)cc1Cl (relative stereo)	8.99
Cc1cccc(CN2CC[C@@H](Oc3ccc(S(=O)(=O)Nc4nccs4)cc3Cl)[C@H](C)C2)c1 (relative stereo)	8.75

Hey, can you go through the list below and give me IC50 for every item?
1. C[C@@H](c1ccccc1)N1CC[C@H](N(C)c2cc(F)c(S(=O)(=O)Nc3cccc(F)n3)cc2Cl)C1 [Example 43, 2,2,2-trifluoroacetate]
2. C[C@H]1C[C@@H](Oc2ccc(S(=O)(=O)Nc3nccs3)cc2Cl)CCN1Cc1ccccc1 (relative stereo)

A)
1: 17.1; 2: 13.5

Data point: C[C@@H]1C[C@@H](Oc2ccc(S(=O)(=O)Nc3nccs3)cc2Cl)CCN1Cc1ccccc1 (relative stereo) ; IC50 = 13.1
